target: Human immunodeficiency virus type 1 reverse transcriptase (Human immunodeficiency virus 1, UniProt Q72547, K103N); assay: Activity to inhibit HIV-1 Reverse transcriptase activity in K103N
pIC50: −log10 of the molar value.
measured.quantity: pIC50

1. NC(=O)c1[nH]c2ccc(Cl)cc2c1S(=O)(=O)c1ccccc1 = < 5.30
2. Cc1cc(C)cc(S(=O)(=O)c2c(C(N)=O)[nH]c3ccc(Cl)cc23)c1 = < 5.30
3. Cc1ccc(S(=O)(=O)c2c(C(N)=O)[nH]c3ccc(Cl)cc23)cc1 = < 5.30

---

pIC50: −log10 of the molar value.
The following compounds have recorded pIC50 on Human immunodeficiency virus type 1 reverse transcriptase (Human immunodeficiency virus 1).
measured.quantity: pIC50

1. Cc1cc(C)cc(S(=O)(=O)c2c(C(N)=O)[nH]c3ccc(Cl)cc23)c1 = 7.51
2. NC(=O)c1[nH]c2ccc(Cl)cc2c1S(=O)(=O)c1ccccc1 = 7.60
3. Cc1ccc(S(=O)(=O)c2c(C(N)=O)[nH]c3ccc(Cl)cc23)cc1 = 7.14

Every entry's value here was drawn from ChEMBL document CHEMBL1145983.
